Result Type: melting point

# count of solved cases: 8
CC(C)(C)NC(=O)C(C#N)C(=O)C1CC1 (stereo not given) : 97 to 98.5 °C
NC(=O)N1C(=O)C(=C(OCCc2ccccc2)c2cccs2)c2cc(F)c(Cl)cc21 : 202 to 203 °C
O=[N+]([O-])N=C1N(COCCBr)CCN1Cc1ccc(Cl)nc1 : 90 to 92 °C
Cc1ccc(NC(=O)c2cccc(N(C)C)c2)cc1NC(=O)c1ccc(N(C)CCCN(C)C)cc1 : 178 to 179 °C
CN1CCN(c2cc3ncc(C#N)c(Nc4ccc(F)c(Cl)c4)c3cc2[N+](=O)[O-])CC1 : 240 to 246 °C
CC(=O)SCC(C)C(=O)N(CC(=O)O)C1CC1 (stereo not given) : 86 to 88 °C
CCCc1c(OCCCOc2cc(O)c(-c3ccc(F)cc3)cc2CC)cccc1Oc1cc(F)ccc1C(=O)O : 62 to 64 °C
CN1CCN(c2ccc(Nc3ncc4ccc(-c5ccc(S(C)(=O)=O)cc5)n4n3)cc2F)CC1 : 227 °C

# melting point of COc1ccc2c(Cl)nccc2c1 = 72 to 74 °C

# melting point of O=C(Nc1ncco1)c1c(C(F)(F)F)nc2c(C(F)(F)F)cccc2c1O = 258 °C

----------
The reader will find reported melting point values listed item by item below.

Here are 5 compounds together with their reported answers.
CC1(N2Cc3ccccc3C2=O)CCC(=O)NC1=O (stereo not given) : 231 to 232 °C
CSc1cnc(OCCOc2ncnc(NS(=O)(=O)c3ccc(C(C)(C)C)cc3)c2-c2ccc(C(=O)O)cc2)nc1 : 226 to 227 °C
CCOc1cccc(C(COC)n2nc(C(=O)O)c3c2-c2ccc(OCc4cncnc4)cc2CC3)c1 (stereo not given) : 208 to 211 °C
Clc1ccc2c(Cl)nc(-c3ccc(Br)cc3)nc2c1 : 189 to 190 °C
Cn1c(CN2C(=O)C3(COc4cc5c(cc43)OCCO5)c3ccccc32)nc2ccccc21 (stereo not given) : > 240 °C

// melting point lookup, compound = COc1cccc(C(O)C(C)(C)NC(=O)Cc2ccc(OC)c(OC)c2)c1 (stereo not given) , result: 137 to 138 °C

Lookup result for C[C@@H](O)c1nccc(N2CCc3ccc(S(=O)(=O)N(C)C)cc3C2)n1 ; measured melting point: 120 to 122 °C

----------
Result Type: melting point

CCN(CC)c1ccc(C=O)c([N+](=O)[O-])c1 : 75 to 77 °C
CC1(C)CC(=O)C2=C(C1)NC1=C(C(=O)CC(C)(C)C1)C2c1ccc(C(F)(F)F)c(F)c1 : 296 to 300 °C
CN(C)S(=O)(=O)c1cc([N+](=O)[O-])c(N)c([N+](=O)[O-])c1 : 169 to 170 °C
O=C(O)c1cc(O)c(C(=O)c2ccccc2)c([N+](=O)[O-])c1 : 264 to 266 °C
COCC(C)Oc1ccc(CSc2cnn(C(C)(C)C)c(=O)c2Cl)cc1 (stereo not given) : 51 to 52 °C

Quick note, melting point for CSCCn1nc(-c2cc(C(C)(C)C)c(O)c(C(C)(C)C)c2)c2cccnc21 landed at 104 to 106 °C

For record CCN1CC(=O)N(c2ccc3ccccc3c2)C1=S the listed melting point is 156 to 159 °C
